- System: S. aureus
- Protocol Text: MIC S. aureus (standard MIC assay modified by inclusion of cyclodextrin)
- Type: cell-based
- Settings: Staphylococcus aureus
Counter-ions that a name gives are not always drawn.
Reported MIC by item:
Reported Endpoint: MIC (µg/mL)

| Molecule | Reported Endpoint | Reported Measurement |
| --- | --- | --- |
| Cc1c(CNCCCNc2nc3nnccc3[nH]2)sc(C2CC2)c1Br [Example 11, dihydrochloride] | MIC | 2 |
| Cc1c(CNCCCNc2nc(=O)c3sccc3[nH]2)sc(Br)c1Br [Example 25] | MIC | 0.5 |
| Cc1c(CNCCCNc2cc(=O)c3ccccc3[nH]2)sc(C(F)F)c1Br [Example 7] | MIC | 1 |
| Cc1c(CNCCCNc2nc3ccccc3[nH]2)sc(C(F)F)c1Br [Example 23] | MIC | 1 |
| CC#Cc1c(CNCCCNc2cc(=O)c3ccccc3[nH]2)sc(CC)c1Br [Example 9] | MIC | 0.06 |
| Cc1c(CNCCCNc2cc(=O)c3ccccc3[nH]2)sc(C2CC2)c1Br [Example 6] | MIC | 0.06 |
| Cc1c(CNCCCNc2nc3ncccc3[nH]2)sc(C(F)F)c1Br [Example 16] | MIC | 0.5 |
| Cc1c(CNCCCNc2nc3cscc3[nH]2)sc(C(F)F)c1Br [Example 19] | MIC | 0.13 |
| CC=Cc1c(CNCCCNc2cc(=O)c3ccccc3[nH]2)sc(CC)c1Br [Example 10] | MIC | 0.06 |
| Cc1c(CNCCCNc2nc3cscc3[nH]2)sc(C(F)(F)F)c1Br [Example 20] | MIC | 0.25 |
| CCc1sc(CNCCCNc2cc(=O)c3ccccc3[nH]2)c(C)c1Br [Example 5] | MIC | 0.06 |
| C=C(F)c1sc(CNCCCNc2nc3ccccc3[nH]2)c(C)c1Br [Example 22] | MIC | 0.13 |
| C#Cc1sc(CNCCCNc2nc3nnccc3[nH]2)c(C)c1Br [Example 15, dihydrochloride] | MIC | 1 |
| C=C(F)c1sc(CNCCCNc2nc3cscc3[nH]2)c(C)c1Br [Example 21] | MIC | 0.06 |
| Cc1c(CNCCCNc2cc(=O)c3ccccc3[nH]2)sc(C(F)(F)F)c1Br [Example 8] | MIC | 0.13 |
| Cc1c(CNCCCNc2cc(=O)c3ccccc3[nH]2)sc(Br)c1Br [Example 1] | MIC | 0.25 |

----------
- Tested on: S. pneumo
- Protocol Text: MIC S. pneumo (standard MIC assay modified by inclusion of cyclodextrin)
- Type: cell-based
- Settings: Streptococcus pneumoniae
- Description: Compounds of the present invention were assayed for antibacterial activity against a range of pathogenic organisms (strains of S aureus, S pneumoniae, E faecalis, H influenzae and M catarrhalis) in a standard MIC assay modified by the inclusion of cyclodextrin, to assist with solubility.
Where a name gives a salt, the structure may show the parent alone.
Below, each entry is listed alongside its reported MIC.
Reported Endpoint: MIC (µg/mL)

| Molecule | Reported Measurement |
| --- | --- |
| Cc1c(CNCCCNc2nc3nnccc3[nH]2)sc(C2CC2)c1Br [Example 11, dihydrochloride] | 8 |
| Cc1c(CNCCCNc2nc3ccccc3[nH]2)sc(C(F)(F)F)c1Br | 1 |
| Cc1c(CNCCCNc2nc3ncccc3[nH]2)sc(C(F)F)c1Br | 4 |
| Cc1c(CNCCCNc2nc3cscc3[nH]2)sc(C(F)(F)F)c1Br | 0.5 |
| Cc1c(CNCCCNc2nc3nnccc3[nH]2)sc(C(F)(F)F)c1Br [Example 12, dihydrochloride] | 2 |
| C=C(F)c1sc(CNCCCNc2cc(=O)c3ccccc3[nH]2)c(C)c1Br | 0.06 |
| C#Cc1sc(CNCCCNc2cc(=O)c3ccccc3[nH]2)c(C)c1Br | 0.06 |
| CC=Cc1c(CNCCCNc2cc(=O)c3ccccc3[nH]2)sc(CC)c1Br | 0.25 |
| C#Cc1sc(CNCCCNc2nc3nnccc3[nH]2)c(C)c1Br [Example 15, dihydrochloride] | 0.5 |
| Cc1c(CNCCCNc2cc(=O)c3ccccc3[nH]2)sc(C(F)F)c1Br | 1 |
| Cc1c(CNCCCNc2nc3cscc3[nH]2)sc(Br)c1Br | 0.25 |
| Cc1c(CNCCCNc2nc3cscc3[nH]2)sc(C(F)F)c1Br | 0.5 |
| Cc1c(CNCCCNc2cc(=O)c3ccccc3[nH]2)sc(C2CC2)c1Br | 0.13 |
| CC#Cc1c(CNCCCNc2cc(=O)c3ccccc3[nH]2)sc(CC)c1Br | 0.06 |
| Cc1c(CNCCCNc2nc(=O)c3sccc3[nH]2)sc(Br)c1Br | 2 |
| C=Cc1sc(CNCCCNc2cc(=O)c3ccccc3[nH]2)c(C)c1Br | 0.06 |

----------
- Test system: M catarrhalis and H. influenzae
- Protocol Text: MIC against some strains of gram negative pathogens
- Assay type: cell-based
- Settings: Haemophilus influenzae
Structures can show the parent of a compound that is named as a salt.
Below, each entry is listed alongside its reported MIC.
Reported Endpoint: MIC

| Compound | Reported Measurement |
| --- | --- |
| C#Cc1sc(CNCCCNc2nc3nnccc3[nH]2)c(C)c1Br [Example 15, dihydrochloride] | 0.13 to 8 µg/mL |
| Cc1c(CNCCCNc2nc3ccccc3[nH]2)sc(C(F)(F)F)c1Br | 0.13 to 8 µg/mL |
| Cc1c(CNCCCNc2nc3cscc3[nH]2)sc(Br)c1Br | 0.13 to 8 µg/mL |

----------
- Tested on: S. aureus
- Protocol Text: MIC S. aureus (standard MIC assay modified by inclusion of cyclodextrin)
- Format: cell-based
- Settings: Staphylococcus aureus
Structures can show the parent of a compound that is named as a salt.

| Molecule | MIC / µg/mL |
| --- | --- |
| Cc1c(CNCCCNc2nc3nnccc3[nH]2)sc(C(F)(F)F)c1Br [Example 12, dihydrochloride] | 0.5 |
| C=C(F)c1sc(CNCCCNc2nc3ncccc3[nH]2)c(C)c1Br | 0.06 |
| C=Cc1sc(CNCCCNc2cc(=O)c3ccccc3[nH]2)c(C)c1Br | 0.06 |
| C=C(F)c1sc(CNCCCNc2cc(=O)c3ccccc3[nH]2)c(C)c1Br | 0.06 |
| C=C(F)c1sc(CNCCCNc2nc3nnccc3[nH]2)c(C)c1Br [Example 14, dihydrochloride] | 0.25 |
| C=Cc1sc(CNCCCNc2nc3nnccc3[nH]2)c(C)c1Br [Example 13, dihydrochloride] | 0.5 |
| Cc1c(CNCCCNc2nc3cscc3[nH]2)sc(Br)c1Br | 0.13 |
| C#Cc1sc(CNCCCNc2cc(=O)c3ccccc3[nH]2)c(C)c1Br | 0.13 |
| Cc1c(CNCCCNc2nc3ccccc3[nH]2)sc(C(F)(F)F)c1Br | 0.5 |

----------
- Test system: S. aureus, S. pneumoniae, and E. faecalis
- Protocol Text: MIC against some strains of gram positive pathogens
- Format: cell-based
Counter-ions that a name gives are not always drawn.
Reported Endpoint: MIC

| Compound | Reported Measurement |
| --- | --- |
| Cc1c(CNCCCNc2nc3cscc3[nH]2)sc(Br)c1Br | 0.06 to 0.5 µg/mL |
| Cc1c(CNCCCNc2cc(=O)c3ccccc3[nH]2)sc(C(F)F)c1Br | 1 to 2 µg/mL |
| Cc1c(CNCCCNc2cc(=O)c3ccccc3[nH]2)sc(Br)c1Br | 0.06 to 0.5 µg/mL |
| Cc1c(CNCCCNc2nc3nnccc3[nH]2)sc(C(F)(F)F)c1Br [Example 12, dihydrochloride] | 0.06 to 0.5 µg/mL |
| C=C(F)c1sc(CNCCCNc2nc3nnccc3[nH]2)c(C)c1Br [Example 14, dihydrochloride] | 0.06 to 0.5 µg/mL |
| Cc1c(CNCCCNc2nc3ccccc3[nH]2)sc(C(F)F)c1Br | 1 to 2 µg/mL |
| CC=Cc1c(CNCCCNc2cc(=O)c3ccccc3[nH]2)sc(CC)c1Br | 0.06 to 0.5 µg/mL |
| CCc1sc(CNCCCNc2cc(=O)c3ccccc3[nH]2)c(C)c1Br | 0.06 to 0.5 µg/mL |
| Cc1c(CNCCCNc2nc3cscc3[nH]2)sc(C(F)(F)F)c1Br | 0.06 to 0.5 µg/mL |

----------
Documented MIC across a set of molecules
- System: S. aureus, S. pneumoniae, and E. faecalis
- Protocol Text: MIC against some strains of gram positive pathogens
- Assay type: cell-based
Structures can show the parent of a compound that is named as a salt.

| Molecule | MIC |
| --- | --- |
| Cc1c(CNCCCNc2nc3ccccc3[nH]2)sc(C(F)(F)F)c1Br [Example 24] | 0.06 to 0.5 µg/mL |
| Cc1c(CNCCCNc2nc3ncccc3[nH]2)sc(C(F)F)c1Br [Example 16] | 0.06 to 0.5 µg/mL |
| C=Cc1sc(CNCCCNc2nc3nnccc3[nH]2)c(C)c1Br [Example 13, dihydrochloride] | 0.06 to 0.5 µg/mL |
| C=C(F)c1sc(CNCCCNc2nc3ncccc3[nH]2)c(C)c1Br [Example 17] | 0.06 to 0.5 µg/mL |
| C#Cc1sc(CNCCCNc2cc(=O)c3ccccc3[nH]2)c(C)c1Br [Example 2] | 0.06 to 0.5 µg/mL |
| Cc1c(CNCCCNc2nc3nnccc3[nH]2)sc(C2CC2)c1Br [Example 11, dihydrochloride] | 1 to 2 µg/mL |

Origin of values: patent US7030137B2
